Assignment: determine reported log10 of Kd for the given compounds.
Molecular target: Cytochrome P450 2B6 (Homo sapiens)
Sequence (P20813 whole entry): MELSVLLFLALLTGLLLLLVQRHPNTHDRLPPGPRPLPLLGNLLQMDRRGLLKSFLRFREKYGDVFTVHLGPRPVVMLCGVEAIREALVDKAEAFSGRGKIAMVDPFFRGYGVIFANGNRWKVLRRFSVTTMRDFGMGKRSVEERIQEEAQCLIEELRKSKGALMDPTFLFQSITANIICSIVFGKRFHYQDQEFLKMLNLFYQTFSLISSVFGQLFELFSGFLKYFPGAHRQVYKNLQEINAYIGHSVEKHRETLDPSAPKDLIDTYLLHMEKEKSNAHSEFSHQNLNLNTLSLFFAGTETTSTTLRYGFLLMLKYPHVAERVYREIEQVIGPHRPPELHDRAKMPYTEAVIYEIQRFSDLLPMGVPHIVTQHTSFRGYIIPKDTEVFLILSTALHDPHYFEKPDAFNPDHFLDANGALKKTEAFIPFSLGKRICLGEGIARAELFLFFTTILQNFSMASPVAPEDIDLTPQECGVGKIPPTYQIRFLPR
Assay: Binding affinity to recombinant CYP2B6 (unknown origin) assessed as spectral dissociation constant-1
Details: read-out: Ks
Lab note - Kd converted to log10 from values in µM.

## Input API: value(readout= log10 of Kd, system= Cytochrome P450 2B6 (Homo sapiens), query= [2H]C([2H])([2H])C(N[C@@]([2H])(C)C(=O)c1cccc(Cl)c1)(C([2H])([2H])[2H])C([2H])([2H])[2H] )
## Output 1.01

## Input Also check [2H]C([2H])([2H])[C@@]([2H])(NC(C)(C)C)C(=O)c1cccc(Cl)c1
## Output 4.05

## Input Also check [2H]C([2H])([2H])C(N[C@]([2H])(C)C(=O)c1cccc(Cl)c1)(C([2H])([2H])[2H])C([2H])([2H])[2H]
## Output 0.59

## Input Also check CC(NC(C)(C)C)C(=O)c1cccc(Cl)c1 (racemic)
## Output 2.50

## Input Also check [2H]C([2H])([2H])[C@]([2H])(NC(C)(C)C)C(=O)c1cccc(Cl)c1
## Output 3.46
